TESTED_TARGET: AMP-activated protein kinase, AMPK (Homo sapiens) (UniProt P54646+O43741+P54619+Q9UGJ0+Q9Y478+Q13131+Q9UGI9)
EXPERIMENT_NOTES: AMP-dependent Kinase enzyme assay. An in vitro enzyme assay that detects ADP turnover that is directly proportional to AMPK activity. This uses naive AMPK that is activated during the assay with MK-8722
Type: functional
Design: scale not given: direction of the effect not stated beside the values
EXPERIMENTAL_SETUP: 30 µM
The compounds listed here are annotated with their Percent Effect.
OBSERVATION_TYPE: Percent Effect

In [3]: df
Out[3]:
                                    compound  observation_type   result
 0  CC1(C)O[C@@](C)([C@H]2CC3(CCN(c4ncccn4)CC3)CO2)CC[C@@H]1O    Percent Effect    7.88%
 1  N#CC1COCCN1C(=O)c1ccc2cc[nH]c2c1 (stereo not given)    Percent Effect    6.24%
 2         COCCN(Cc1nccs1)c1nc2c(s1)c(C)nn2C    Percent Effect     -10%
 3  O=C(CCc1nc(-c2ccsc2)no1)NCC1CCN(C2CC2)C1 (stereo not given)    Percent Effect    1.07%
 4  COc1ccc(F)cc1-c1ccccc1CC1CNCCNC1=O (stereo not given)    Percent Effect    4.74%
 5  c1ccn2c(C3CCCN3Cc3nc(C4CC4)no3)nnc2c1 (stereo not given)    Percent Effect    2.28%
 6  CCn1cc(CN2CCC(c3ncc(Cl)cc3S(C)(=O)=O)CC2)c(C)n1    Percent Effect    4.95%
 7  CSCC(C)(O)CNS(=O)(=O)c1ccc(Br)cc1 (stereo not given)    Percent Effect    -4.9%
 8  Cc1cnc(C(NC(=O)NCc2nc(C3CC3)no2)C2CC2)s1 (stereo not given)    Percent Effect   0.145%
 9        Cc1nc(C)c(C(=O)N2CCc3c(C)cccc32)o1    Percent Effect    4.71%
10     Cc1cc(NC(=O)C2CCN(c3ncccc3C#N)CC2)no1    Percent Effect    4.93%
11  Cc1cn2c(n1)C(CNCc1cnn3ccccc13)CCC2 (stereo not given)    Percent Effect   -1.25%
12            COCc1c(Br)cccc1NC(=O)CC(F)(F)F    Percent Effect   -6.57%
13  Cc1nnc(CN(C)CC(=O)NC(C)(C)c2ccc(F)cc2)n1C    Percent Effect    6.43%
14  CC(C)N(CCO)C(=O)c1cc(COc2ccc3c(c2)CCCC3)on1    Percent Effect   -2.41%
15            O=C(NCc1nnc2n1CCC2)c1ccc(Br)s1    Percent Effect   -4.78%
16  Cc1noc(C)c1C(=O)N(C)C(C)c1ccncc1 (stereo not given)    Percent Effect  -0.736%
17  O=C(C1CCOC1)N1CCN(CC2CC2)c2ccccc21 (stereo not given)    Percent Effect    5.43%
18  O=C(Cc1c(F)cccc1Cl)NC1CCCCNC1=O (stereo not given)    Percent Effect    7.73%
19        Cc1cc(C)c(C#N)c(NCCn2cnnc2C(C)C)n1    Percent Effect     2.2%
20          CCc1csc(NC(=O)Nc2c(C)n[nH]c2C)n1    Percent Effect   -1.09%
21        Cc1ccc(CNc2ccn(CCC(N)=O)n2)c(Br)c1    Percent Effect    1.48%
22          Cn1nc2c(c1NC(=O)c1ccc(Cl)s1)CCC2    Percent Effect   0.899%
23  CC1(C)Cc2nc(C(C)(C)C)ncc2C(NC(=O)CN)C1 (stereo not given)    Percent Effect   -5.88%
24  COc1cccc(C(=O)N2CCN(C(=O)CCCc3cn[nH]c3)CC2)c1    Percent Effect   -1.35%
